- targetOrTestSystem: KRas G12C (Homo sapiens, UniProt P01116, C118S/C51S/C80L/G12C)
- Construct: GDP-loaded K-Ras (1-169) G12C, C51S, C80L, C118S
- assayOverview: KRas G12C Modification Assay (LCMS detection of covalent adduct)
- Type: binding
- particulars: 5 μM concentration for 3 hours
Reported POC (normalized percent of control, covalent modification of KRas G12C) values are given for each entry in this list.
recordedMetric: POC (normalized percent of control, covalent modification of KRas G12C)

INSERT INTO results (compound, targetortestsystem, obsvalue) VALUES
  ('C=CC(=O)N1CC(CN2C(=O)[C@H](CCN3CCOCC3)Oc3cc(-c4cc(O)cc5ccccc45)c(Cl)cc32)C1 [Example 34]', 'KRas G12C (Homo sapiens, UniProt P01116, C118S/C51S/C80L/G12C)', '93% of control'),
  ('C=CC(=O)N1CC(CN2C(=O)COc3c2ccc(-c2cc(O)cc4ccccc24)c3F)C1 [Example 6]', 'KRas G12C (Homo sapiens, UniProt P01116, C118S/C51S/C80L/G12C)', '86% of control'),
  ('C=CC(=O)N1CC(CN2C(=O)COc3cc(-c4cc(O)cc5ccccc45)c(Cl)cc32)C1 [Example 1]', 'KRas G12C (Homo sapiens, UniProt P01116, C118S/C51S/C80L/G12C)', '104% of control'),
  ('C=CC(=O)N1CC(CN2C(=O)C(CN3CC[C@@H](OC)C3)Oc3cc(-c4cc(O)cc5ccccc45)c(Cl)cc32)C1 (stereo partly shown) [Example 28]', 'KRas G12C (Homo sapiens, UniProt P01116, C118S/C51S/C80L/G12C)', '93% of control'),
  ('C=CC(=O)N1CC(CN2C(=O)[C@@H](CCN(C)C)Oc3cc(-c4cc(O)cc5ccccc45)c(Cl)cc32)C1 [Example 18]', 'KRas G12C (Homo sapiens, UniProt P01116, C118S/C51S/C80L/G12C)', '91% of control'),
  ('C=CC(=O)N1CC(CN2C(=O)[C@H](CCN(C)C)Oc3cc(-c4cc(O)cc5ccccc45)c(Cl)cc32)C1 [Example 26]', 'KRas G12C (Homo sapiens, UniProt P01116, C118S/C51S/C80L/G12C)', '90% of control'),
  ('C=CC(=O)N1CC(CN2C(=O)[C@H](CCN(C)C)Oc3cc(-c4cccc5ccccc45)c(Cl)cc32)C1 [Example 33]', 'KRas G12C (Homo sapiens, UniProt P01116, C118S/C51S/C80L/G12C)', '32% of control');

====

- targetOrTestSystem: KRas G12C (Homo sapiens, UniProt P01116, G12C)
- Construct: NCI-11358 cells (ATCC CRL-5807) express KRas G12C
- assayOverview: Cellular inhibition of KRas G12C measured by Phospho-ERK in NCI-11358 cells
- particulars: NCI-11358 cells (ATCC CRL-5807), 3 hours; read-out: Inhibition (IC50, pERK (Thr202/Tyr204) signal normalized with GAPDH)
pIC50: −log10 of the molar value. Counter-ions that a name gives are not always drawn.
Reported pIC50 values are given for each entry in this list.
recordedMetric: pIC50

INSERT INTO results (molecule, obsvalue) VALUES
  ('C=CC(=O)N1CC(CN2C(=O)COc3cc(-c4cc(O)ccc4OC(F)(F)F)c(Cl)cc32)C1', '< 6.00'),
  ('C=CC(=O)N1CC(CN2C(=O)C(CN3CCCC3)Oc3cc(-c4cc(O)cc5ccccc45)c(Cl)cc32)C1 (centres unmarked)', '≥ 6.00'),
  ('C=CC(=O)N1CC(CN2C(=O)C(CN3CCCC3)Oc3cc(-c4cccc5ccccc45)c(Cl)cc32)C1 (centres unmarked) [Example 24, 2,2,2-trifluoroacetate]', '< 6.00'),
  ('C=CC(=O)N1CC(CN2C(=O)[C@@H](CCN(C)C)Oc3cc(-c4cc(O)cc5ccccc45)c(Cl)cc32)C1', '≥ 6.00'),
  ('C=CC(=O)N1CC(CN2C(=O)COc3cc(-c4c(C)ccc5[nH]cnc45)c(Cl)cc32)C1 [Example 15, trifluoroacetate salt]', '< 6.00'),
  ('C=CC(=O)N1CC(CN2C(=O)[C@H](CCN(C)C)Oc3cc(-c4cc(O)cc5ccccc45)c(Cl)cc32)C1', '≥ 6.00'),
  ('C=CC(=O)N1CC(CN2C(=O)C(CC(C)C)Oc3cc(-c4cc(O)cc5ccccc45)c(Cl)cc32)C1 (centres unmarked)', '< 6.00'),
  ('C=CC(=O)N1CC(CN2C(=O)C(C3CCN(C)CC3)Oc3cc(-c4cc(O)cc5ccccc45)c(Cl)cc32)C1 (centres unmarked)', '≥ 6.00'),
  ('C=CC(=O)N1CC(CN2C(=O)[C@H](CCN(C)C)Oc3cc(-c4c(C)ccc5[nH]ncc45)c(Cl)cc32)C1 (single isomer, unassigned) [Example 36]', '< 6.00'),
  ('C=CC(=O)N1CC(CN2C(=O)C(CN3CC[C@H](OC)C3)Oc3cc(-c4cc(O)cc5ccccc45)c(Cl)cc32)C1 (some centres unmarked)', '≥ 6.00'),
  ('C=CC(=O)N1CC(CN2C(=O)COc3cc(-c4[nH]nc(C)c4C)c(Cl)cc32)C1', '< 6.00'),
  ('C=CC(=O)N1CC(CN2C(=O)COc3c2ccc(-c2cc(O)cc4ccccc24)c3F)C1', '< 6.00'),
  ('C=CC(=O)N1CC(CN2C(=O)COc3cc(-c4c(C)ccc5[nH]ncc45)c(Cl)cc32)C1 (single isomer, unassigned) [Example 11]', '< 6.00'),
  ('C=CC(=O)N1CC(CN2C(=O)C(CCCN3CCOCC3)Oc3cc(-c4cc(O)cc5ccccc45)c(Cl)cc32)C1 (centres unmarked) [Example 25, 2,2,2-trifluoroacetate]', '≥ 6.00');

Data origin, for the record: patent US11932633B2
